Source listed as patent US11103511B2.

- assayedTarget: IDO1 (Homo sapiens)
- Sequence (P14902 whole entry): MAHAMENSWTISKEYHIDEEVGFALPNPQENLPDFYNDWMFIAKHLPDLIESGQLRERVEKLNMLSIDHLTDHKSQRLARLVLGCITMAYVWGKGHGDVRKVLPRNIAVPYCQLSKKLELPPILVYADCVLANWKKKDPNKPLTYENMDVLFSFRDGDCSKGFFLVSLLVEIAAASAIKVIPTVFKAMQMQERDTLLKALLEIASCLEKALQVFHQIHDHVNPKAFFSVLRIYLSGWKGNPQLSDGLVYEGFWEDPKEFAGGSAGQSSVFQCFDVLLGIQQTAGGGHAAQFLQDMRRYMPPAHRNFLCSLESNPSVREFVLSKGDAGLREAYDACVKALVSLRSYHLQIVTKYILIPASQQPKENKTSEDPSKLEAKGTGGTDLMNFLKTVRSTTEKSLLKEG
- testMethodNotes: IC50 (enzyme level) of IDO1
- Type: biochemical
- runConditions: read-out: IC50 enzymatic IDO1
- From the text: The nucleotide sequences of IDO1, IDO2, and TDO have been disclosed. The IC50 test of IDO1 can be performed with reference to existing methods in the art, such as the method described in Chinese Patent NO.
propertyName: IC50 (µM)

Worked examples follow.
O=C1c2cc(Cn3cc(-c4ccccc4)nn3)ccc2-n2c1nc1ccc(Br)cc1c2=O = 41.1
O=C1c2cc(F)ccc2-n2c1nc1ccc(Cn3cc(-c4ccccc4)nn3)cc1c2=O = 39.1
O=C1c2cc(Cn3cc(-c4ccccc4)nn3)ccc2-n2c1nc1ccc(F)cc1c2=O = 50
O=C1c2cc(Cn3cc(-c4ccccc4)nn3)ccc2-n2c1nc1ccccc1c2=O = 45.2

1. Cc1ccc2nc3n(c(=O)c2c1)-c1ccc(Cn2cc(-c4ccccc4)nn2)cc1C3=O
2. O=C1c2cc(Cn3cc(-c4ccccc4)nn3)ccc2-n2c1nc1ccc(Cl)cc1c2=O
-- ask I'm curious, which of these has a smaller IC50 number: 1 or 2 ? Mark your selection by writing its label.
-- reply 2
